target or system: human TYK2 (Homo sapiens)
Construct: catalytic domain (amino acids 871-1187; catalog number 08-147)
Sequence (P29597 871-1187): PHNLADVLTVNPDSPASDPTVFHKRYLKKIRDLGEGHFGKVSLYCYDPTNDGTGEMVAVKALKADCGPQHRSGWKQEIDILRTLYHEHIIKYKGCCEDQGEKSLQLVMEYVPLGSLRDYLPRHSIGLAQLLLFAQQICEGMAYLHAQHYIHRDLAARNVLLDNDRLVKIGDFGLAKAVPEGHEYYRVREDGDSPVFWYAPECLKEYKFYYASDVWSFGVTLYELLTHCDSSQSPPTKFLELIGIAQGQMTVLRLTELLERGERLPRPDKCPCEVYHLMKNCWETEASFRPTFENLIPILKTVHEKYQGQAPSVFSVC
experiment notes: TYK2 inhibition assay
measurement setup: recombinant human TYK2 catalytic domain, polyGT substrate
observation type: IC50

[
  {
    "sample smiles": "CN(c1cc2c(cn1)ncn2C)c1c(F)cc(C2CN(C(=O)OC(C)(C)C)C2)cc1F",
    "target or system": "human TYK2 (Homo sapiens)",
    "IC50": "> 1000 nM"
  },
  {
    "sample smiles": "CN(c1cc2c(cn1)ncn2C)c1ccc(C#N)cc1F",
    "target or system": "human TYK2 (Homo sapiens)",
    "IC50": "> 1000 nM"
  },
  {
    "sample smiles": "CCc1cc(-c2ccc(C)s2)ncc1N(C)c1cc2c(cn1)ncn2C",
    "target or system": "human TYK2 (Homo sapiens)",
    "IC50": "0.01 to 100 nM"
  },
  {
    "sample smiles": "CN(c1cc2c(cn1)ncn2C)c1ccc(CN(CC2CC2)S(C)(=O)=O)cc1F",
    "target or system": "human TYK2 (Homo sapiens)",
    "IC50": "> 1000 nM"
  },
  {
    "sample smiles": "CCc1cc(CN(C)S(C)(=O)=O)cc(F)c1N(C)c1cc2c(cn1)ncn2C",
    "target or system": "human TYK2 (Homo sapiens)",
    "IC50": "0.01 to 100 nM"
  },
  {
    "sample smiles": "CCc1cc(CC#N)ccc1N(C)c1cc2c(cn1)ncn2C",
    "target or system": "human TYK2 (Homo sapiens)",
    "IC50": "0.01 to 100 nM"
  },
  {
    "sample smiles": "CCc1cc(-c2cnn(Cc3ccc(C)cc3)c2)ccc1N(C)c1cc2c(cn1)ncn2C",
    "target or system": "human TYK2 (Homo sapiens)",
    "IC50": "0.01 to 100 nM"
  },
  {
    "sample smiles": "CCc1cc(-c2cnn(Cc3ccc(OC)cc3)c2)ccc1N(C)c1cc2c(cn1)ncn2C",
    "target or system": "human TYK2 (Homo sapiens)",
    "IC50": "0.01 to 100 nM"
  }
]

Please look at the following molecule next.
Query: Entry CCc1cc(-c2cnn(CCN3CCCC3)c2)ccc1N(C)c1cc2c(cn1)ncn2C , system human TYK2 (Homo sapiens): what IC50 was measured?
Response: 0.01 to 100 nM

---

target or system: human JAK2 (Homo sapiens, UniProt O60674)
Construct: catalytic domain (amino acids 808-1132; catalog number PV4210); GST
Sequence (O60674 808-1132): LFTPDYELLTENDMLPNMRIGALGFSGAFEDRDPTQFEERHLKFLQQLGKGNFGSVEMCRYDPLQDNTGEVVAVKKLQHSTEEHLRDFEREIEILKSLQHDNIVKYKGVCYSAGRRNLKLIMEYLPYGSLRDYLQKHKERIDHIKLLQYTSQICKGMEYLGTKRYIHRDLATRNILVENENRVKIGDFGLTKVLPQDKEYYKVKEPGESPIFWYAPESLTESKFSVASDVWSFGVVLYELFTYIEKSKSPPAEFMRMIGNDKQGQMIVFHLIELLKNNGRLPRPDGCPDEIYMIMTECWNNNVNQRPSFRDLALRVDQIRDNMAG
experiment notes: JAK2 inhibition assay (polyGT substrate / Ulight-JAK1 peptide)
measurement setup: recombinant human JAK2 catalytic domain; polyGT or Ulight-JAK1 peptide assay
Parameter: IC50. Scope: all listed entries.

Examples with their reported IC50 follow.
[
  {
    "sample smiles": "CCc1cc(C2CN(S(=O)(=O)C(F)F)C2)ncc1N(C)c1cc2c(cn1)ncn2C",
    "target or system": "human JAK2 (Homo sapiens, UniProt O60674)",
    "observation type": "IC50",
    "result": "0.01 to 100 nM"
  },
  {
    "sample smiles": "CCc1cc(C2CCCC2)ncc1N(C)c1cc2c(cn1)ncn2C",
    "target or system": "human JAK2 (Homo sapiens, UniProt O60674)",
    "observation type": "IC50",
    "result": "0.01 to 100 nM"
  },
  {
    "sample smiles": "CCc1cc(C2CN(S(=O)(=O)CC(F)(F)F)C2)ccc1N(C)c1cc2c(cn1)ncn2C",
    "target or system": "human JAK2 (Homo sapiens, UniProt O60674)",
    "observation type": "IC50",
    "result": "0.01 to 100 nM"
  },
  {
    "sample smiles": "Cc1cc(-c2cnn(C)c2)ccc1N(C)c1cc2c(cn1)ncn2C",
    "target or system": "human JAK2 (Homo sapiens, UniProt O60674)",
    "observation type": "IC50",
    "result": "501 to 1000 nM"
  },
  {
    "sample smiles": "CCc1cc(C#N)cc(F)c1N(C)c1cc2c(cn1)ncn2C",
    "target or system": "human JAK2 (Homo sapiens, UniProt O60674)",
    "observation type": "IC50",
    "result": "101 to 500 nM"
  }
]

Query: // query IC50 value for entry CCc1cc(C2CN(CC(F)(F)F)C2)ncc1N(C)c1cc2c(cn1)ncn2C
Response: > 1000 nM

Query: # input compound: CCc1cc(-c2ccc(C)s2)ncc1N(C)c1cc2c(cn1)ncn2C ; wanted: its IC50
Response: 0.01 to 100 nM

Query: Param item = CCc1ccncc1N(C)c1cc2c(cn1)ncn2C ; retrieve measured IC50.
Response: > 1000 nM

Query: Which IC50 is reported for this compound? CCc1cc(-c2cncnc2)ccc1N(C)c1cc2c(cn1)ncn2C
Response: 101 to 500 nM
